Biological target: human vanin-1 (Homo sapiens (Human))
Sequence (O95497 22-491): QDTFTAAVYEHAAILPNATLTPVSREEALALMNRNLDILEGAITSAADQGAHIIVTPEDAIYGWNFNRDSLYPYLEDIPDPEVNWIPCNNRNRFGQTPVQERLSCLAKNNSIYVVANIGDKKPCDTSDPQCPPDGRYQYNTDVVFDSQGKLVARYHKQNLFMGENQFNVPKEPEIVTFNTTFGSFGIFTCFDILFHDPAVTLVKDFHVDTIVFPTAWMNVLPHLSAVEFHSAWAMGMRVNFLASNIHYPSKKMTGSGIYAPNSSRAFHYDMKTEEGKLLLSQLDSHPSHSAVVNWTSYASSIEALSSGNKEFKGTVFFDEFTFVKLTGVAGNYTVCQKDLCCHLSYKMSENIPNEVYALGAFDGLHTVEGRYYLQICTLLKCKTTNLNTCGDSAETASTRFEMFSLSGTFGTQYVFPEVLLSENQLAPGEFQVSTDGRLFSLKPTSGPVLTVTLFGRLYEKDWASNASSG
Experiment: Human Vanin-1 Enzyme Assay 1
Assay type: biochemical
Conditions: 25 pM human vanin-1, 50 uM pantetheine 7-amino-4-trifluoromethylcoumarin, 30 min preincubation, 60 min
endpoint.label: IC50 (nM)

> print(dat)
                         chemical.structure  endpoint.label  readout.value
1  Cc1ccc(CNc2ncc(C(=O)c3cccc(C(F)(F)F)c3)cn2)cn1            IC50            1.7

P: O=C(O)c1ccc(CNc2ncc(C(=O)c3ccc(F)c(F)c3)cn2)cc1
Q: N#Cc1cccc(C(=O)c2cnc(NCc3cnccn3)nc2)c1
R: O=C(c1cnc(NCc2cnccn2)nc1)c1cccc(C(F)(F)F)c1
S: O=C(c1cnc(NCc2cccnc2)nc1)c1ccccc1Cl
Sequence the entries by IC50, beginning with the highest number. Answer format: the labels, in the requested order.
P, S, Q, R
(P: 5690 nM, S: 858 nM, Q: 50.5 nM, R: 6.4 nM)
